Conditions: human gut metagenome, 24 h, 2 µM; also: call rule not given here
measured-endpoint: Bacterial Biotransformation

// below: answered compounds
{"compound": "CC(C)NCC(O)c1ccc(NS(C)(=O)=O)cc1 (stereo not drawn)", "measured-endpoint": "Bacterial Biotransformation", "observed-value": "Compound NOT metabolized"}
{"compound": "CCN1CCCC1CNC(=O)c1cc(S(N)(=O)=O)ccc1OC (stereo not drawn) [SULPIRIDE]", "measured-endpoint": "Bacterial Biotransformation", "observed-value": "Compound metabolized"}
{"compound": "CC(=O)OCC(=O)[C@@]1(O)[C@@H](C)C[C@H]2[C@@H]3CCC4=CC(=O)C=C[C@]4(C)[C@@]3(F)[C@@H](O)C[C@@]21C [BETAMETHASONE ACETATE]", "measured-endpoint": "Bacterial Biotransformation", "observed-value": "Compound metabolized"}
{"compound": "COC1=CC(=O)C[C@@H](C)[C@]12Oc1c(Cl)c(OC)cc(OC)c1C2=O", "measured-endpoint": "Bacterial Biotransformation", "observed-value": "Compound NOT metabolized"}
{"compound": "CCCCC1=NC2(CCCC2)C(=O)N1Cc1ccc(-c2ccccc2-c2nnn[nH]2)cc1", "measured-endpoint": "Bacterial Biotransformation", "observed-value": "Compound metabolized"}
{"compound": "Cc1ccnc2c1NC(=O)c1cccnc1N2C1CC1", "measured-endpoint": "Bacterial Biotransformation", "observed-value": "Compound NOT metabolized"}

Report Bacterial Biotransformation for every entry below.
1. CC(CN(C)C)CN1c2ccccc2CCc2ccccc21.O=C(O)/C=C\C(=O)O (stereo not drawn) [TRIMIPRAMINE MALEATE]
2. CN1CCN(CC/C=C2/c3ccccc3Sc3ccc(S(=O)(=O)N(C)C)cc32)CC1

Return:
Compound metabolized
Compound metabolized

* * *

Experiment: The drug is tested on WLS-090 corresponding to human gut metagenome with ENA study accession number: PRJEB37062 and ENA sample accession number: ERS12561753 for biotransformation under anaerobic condition. The drug concentrations were measured over 9 timepoints collected between 0 and 24 hours of incubation by liquid-chromatography-coupled mass spectrometry (LC–MS)
Conditions: 2 µM
measured-endpoint: Bacterial Biotransformation

// below: answered molecules
{"molecule": "CN1C(=O)CC(C)(c2ccccc2)C1=O (stereo not drawn) [METHSUXIMIDE]", "measured-endpoint": "Bacterial Biotransformation", "observed-value": "Compound NOT metabolized"}
{"molecule": "CC(C)c1nc(CN(C)C(=O)N[C@H](C(=O)N[C@@H](Cc2ccccc2)C[C@H](O)[C@H](Cc2ccccc2)NC(=O)OCc2cncs2)C(C)C)cs1", "measured-endpoint": "Bacterial Biotransformation", "observed-value": "Compound metabolized"}
{"molecule": "Nc1ccc(/N=N/c2ccccc2)c(N)n1", "measured-endpoint": "Bacterial Biotransformation", "observed-value": "Compound metabolized"}
{"molecule": "Cc1ccc(S(=O)(=O)NC(=O)NN2CCCCCC2)cc1 [TOLAZAMIDE]", "measured-endpoint": "Bacterial Biotransformation", "observed-value": "Compound metabolized"}
{"molecule": "COc1cc2nc(N3CCN(C(=O)c4ccco4)CC3)nc(N)c2cc1OC", "measured-endpoint": "Bacterial Biotransformation", "observed-value": "Compound metabolized"}
{"molecule": "CCN1CCCC1CNC(=O)c1cc(S(N)(=O)=O)ccc1OC (stereo not drawn) [SULPIRIDE]", "measured-endpoint": "Bacterial Biotransformation", "observed-value": "Compound metabolized"}
{"molecule": "OCCOCCN1CCN(C2=Nc3ccccc3Sc3ccccc32)CC1", "measured-endpoint": "Bacterial Biotransformation", "observed-value": "Compound metabolized"}
{"molecule": "CN(C)C(=O)C(CCN1CCC(O)(c2ccc(Cl)cc2)CC1)(c1ccccc1)c1ccccc1 [LOPERAMIDE]", "measured-endpoint": "Bacterial Biotransformation", "observed-value": "Compound metabolized"}

Report Bacterial Biotransformation for every entry below.
1. CCCCc1nc(Cl)c(CO)n1Cc1ccc(-c2ccccc2-c2nn[nH]n2)cc1
2. OCCN1CCN(CCCN2c3ccccc3Sc3ccc(C(F)(F)F)cc32)CC1
3. COCCc1ccc(OCC(O)CNC(C)C)cc1.COCCc1ccc(OCC(O)CNC(C)C)cc1.O=C(O)C(O)C(O)C(=O)O (stereo not drawn) [METOPROLOL TARTRATE]
4. COc1ccccc1N1CCN(CC(O)COc2cccc3ccccc23)CC1 (stereo not drawn)
5. CCC(COC(=O)c1cc(OC)c(OC)c(OC)c1)(c1ccccc1)N(C)C.O=C(O)/C=C\C(=O)O (stereo not drawn)

Return:
1: Compound metabolized; 2: Compound metabolized; 3: Compound metabolized; 4: Compound NOT metabolized; 5: Compound NOT metabolized

Report Bacterial Biotransformation for every entry below.
1. C=CCc1ccccc1OCC(O)CNC(C)C (stereo not drawn)
2. CC(=O)O[C@]1(C(C)=O)CC[C@H]2[C@@H]3C=C(Cl)C4=CC(=O)[C@@H]5C[C@@H]5[C@]4(C)[C@H]3CC[C@@]21C [CYPROTERONE ACETATE]
3. CCOc1ccc(NC(C)=O)cc1
4. COC(=O)C1=C(C)NC(C)=C(C(=O)OC(C)C)C1c1cccc2nonc12 (stereo not drawn)
5. CN1C(C(=O)Nc2ccccn2)=C(O)c2sccc2S1(=O)=O

Return:
Compound metabolized
Compound metabolized
Compound NOT metabolized
Compound metabolized
Compound NOT metabolized

* * *

Conditions: human gut metagenome, 24 h, 2 µM
measured-endpoint: Bacterial Biotransformation

// below: answered compounds
{"compound": "Cc1ccnc2c1NC(=O)c1cccnc1N2C1CC1 [NEVIRAPINE]", "measured-endpoint": "Bacterial Biotransformation", "observed-value": "Compound NOT metabolized"}
{"compound": "CC[C@@H](CO)NC(=O)[C@@H]1C=C2c3cccc4c3c(cn4C)C[C@H]2N(C)C1.O=C(O)/C=C\\C(=O)O [METHYSERGIDE MALEATE]", "measured-endpoint": "Bacterial Biotransformation", "observed-value": "Compound NOT metabolized"}
{"compound": "CC(C)NCC(O)COc1ccc(CCOCC2CC2)cc1 (stereo not drawn) [BETAXOLOL]", "measured-endpoint": "Bacterial Biotransformation", "observed-value": "Compound NOT metabolized"}
{"compound": "Cc1nc(-c2ccc(OCC(C)C)c(C#N)c2)sc1C(=O)O [FEBUXOSTAT]", "measured-endpoint": "Bacterial Biotransformation", "observed-value": "Compound metabolized"}
{"compound": "CN(C)CCc1c[nH]c2ccc(Cn3cncn3)cc12.O=C(O)c1ccccc1 [RIZATRIPTAN BENZOATE]", "measured-endpoint": "Bacterial Biotransformation", "observed-value": "Compound NOT metabolized"}

Report Bacterial Biotransformation for every entry below.
1. O=c1[nH]c2ccccc2n1C1CCN(CCCC(c2ccc(F)cc2)c2ccc(F)cc2)CC1 [PIMOZIDE]
2. COc1ccc(CCN(C)CCCC(C#N)(c2ccc(OC)c(OC)c2)C(C)C)cc1OC (stereo not drawn)
3. CC(C)(C)NC[C@H](O)COc1ccccc1C1CCCC1.CC(C)(C)NC[C@H](O)COc1ccccc1C1CCCC1.O=S(=O)(O)O [PENBUTOLOL SULFATE]

Return:
["Compound NOT metabolized", "Compound metabolized", "Compound metabolized"]

* * *

Test: The drug is tested on Z-008 corresponding to metagenome with ENA study accession number: PRJEB37062 and ENA sample accession number: ERS12561808 for biotransformation under anaerobic condition. The drug concentrations were measured over 9 timepoints collected between 0 and 24 hours of incubation by liquid-chromatography-coupled mass spectrometry (LC–MS)
Conditions: 2 µM
measured-endpoint: Bacterial Biotransformation

// below: answered molecules
{"molecule": "O=c1n(CCCN2CCN(c3cccc(Cl)c3)CC2)nc2ccccn12 [TRAZODONE]", "observed-value": "Compound NOT metabolized"}
{"molecule": "COc1ccc2[nH]c([S+]([O-])Cc3ncc(C)c(OC)c3C)nc2c1 (stereo not drawn) [OMEPRAZOLE]", "observed-value": "Compound metabolized"}
{"molecule": "CC(CN1c2ccccc2Sc2ccccc21)N(C)C (stereo not drawn) [PROMETHAZINE]", "observed-value": "Compound NOT metabolized"}
{"molecule": "CC(C)(C)NC[C@H](O)COc1ccccc1C1CCCC1.CC(C)(C)NC[C@H](O)COc1ccccc1C1CCCC1.O=S(=O)(O)O [PENBUTOLOL SULFATE]", "observed-value": "Compound NOT metabolized"}
{"molecule": "CCC(=O)NCC[C@@H]1CCc2ccc3c(c21)CCO3 [RAMELTEON]", "observed-value": "Compound metabolized"}

Report Bacterial Biotransformation for every entry below.
1. CCCCC(=O)N(Cc1ccc(-c2ccccc2-c2nnn[nH]2)cc1)[C@H](C(=O)O)C(C)C
2. CC(C)c1c(C(=O)Nc2ccccc2)c(-c2ccccc2)c(-c2ccc(F)cc2)n1CC[C@@H](O)C[C@@H](O)CC(=O)O [ATORVASTATIN]
3. C=CCc1ccccc1OCC(O)CNC(C)C (stereo not drawn) [ALPRENOLOL]

Return:
1: Compound NOT metabolized; 2: Compound NOT metabolized; 3: Compound NOT metabolized
